Tested on: HIV-1 NL 4-3
Assay: HIV-1 infection of C8166 cells (syncytia formation, p24 ELISA) with HIV-1 NL 4-3
Assay type: cell-based
Set-up: key: ++, +, (+), (+)− and − represent decreasing numbers of syncitia formed; ++, +, (+), (+)− and − represent decreasing numbers of syncitia formed; ++, +, (+), (+)− and − represent decreasing numbers of syncitia formed; ++, +, (+), (+)− and − represent decreasing numbers of syncitia formed; ++, +, (+), (+)− and − represent decreasing numbers of syncitia formed
Details: 0.1 μM; Day 6; C8166 cells
Square brackets hold non-standard residues; d marks the D form. Peptide text beside a SMILES is read from it. Ava = NCCCCC(=O)O

{"molecule": "NCC(=O)N1CCC[C@H]1C(=O)NCC(=O)NCCCCC(=O)O [GPG valeric acid, GPG-NHCH2CH2CH2CH2COOH] (H-GPG[Ava]-OH; N-terminus assumed)", "syncitia formed, Day 6": "(+)"}
{"molecule": "NCC(=O)N1CCC[C@H]1C(=O)NCC(=O)O [GPG, reference compound] (H-Gly-Pro-Gly-OH)", "syncitia formed, Day 6": "(+)"}
{"molecule": "C[C@H](NC(=O)[C@H](CCCNC(=N)N)NC(=O)CNC(=O)[C@@H]1CCCN1C(=O)CN)C(=O)NCCCCC(=O)O [GPGRA valeric acid, GPGRA-NHCH2CH2CH2CH2COOH] (H-GPGRA[Ava]-OH; N-terminus assumed)", "syncitia formed, Day 6": "(+)"}
{"molecule": "N=C(N)NCCC[C@H](NC(=O)CNC(=O)[C@@H]1CCCN1C(=O)CN)C(=O)NCCCCC(=O)O [GPGR valeric acid, GPGR-NHCH2CH2CH2CH2COOH] (H-GPGR[Ava]-OH; N-terminus assumed)", "syncitia formed, Day 6": "+"}
{"molecule": "N=C(N)NCCC[C@H](NC(=O)CNC(=O)[C@@H]1CCCN1C(=O)CN)C(=O)O [GPGR, reference compound] (H-GPGR-OH; N-terminus and C-terminus assumed)", "syncitia formed, Day 6": "+"}
